# assay_system: T1, Anti-CD28 Fab (SEQ ID NOs: 696, 697)
# T1 construct: In the phage ELISA the Fab was biotinylated and captured on neutravidin coated plates
# T1 sequence (VH, as listed by the source, chain 1 of 2): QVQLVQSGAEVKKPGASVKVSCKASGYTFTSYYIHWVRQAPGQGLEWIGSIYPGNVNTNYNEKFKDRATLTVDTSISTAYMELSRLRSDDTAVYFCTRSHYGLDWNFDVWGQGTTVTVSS
# T1 sequence (VL, as listed by the source, chain 2 of 2): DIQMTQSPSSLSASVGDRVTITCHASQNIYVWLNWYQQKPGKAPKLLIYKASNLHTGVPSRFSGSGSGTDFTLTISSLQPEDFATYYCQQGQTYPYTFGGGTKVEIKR
# experiment: phage ELISA; biotinylated anti-CD28 Fab on neutravidin plates, bound phage detected with anti-M13-HRP
property_label: Phage binding ELISA, Anti-CD28 Fab signal
Answer with the value's number alone.

YCDGHLGIYMTKCL (Tested as clonal phage supernatant) [Phage-718]	1.98
YCEGHAAEYMMKCL (Tested as clonal phage supernatant) [Phage-713]	1.99
YCEGHLSQYMQKCL (Tested as clonal phage supernatant) [Phage-709]	2
YCDGHLPQYMSKCL (Tested as clonal phage supernatant) [Phage-712]	2
YCDGHSDQYMWKCL (Tested as clonal phage supernatant) [Phage-711]	2

Q: What does the data say about its Phage binding ELISA, Anti-CD28 Fab signal? Entry: YCDGHSQEYIAKCL (Tested as clonal phage supernatant) [Phage-715]
Result: 1.99
